Experiment: physchem
Conditions: pH 7.8
result type: chromatographic logP
Form field (numeric): enter value without unit.

O=C(OC1CCCCC1Cl)C1CC(c2csc(C3CCN(C(=O)Cn4nc(C(F)F)cc4C(F)F)CC3)n2)=NO1 (centres unmarked) [Example I-5] :: 3.5

The recorded chromatographic logP for entry COC(=O)C1CC(c2csc(C3CCN(C(=O)Cn4nc(C(F)F)cc4C(F)F)CC3)n2)=NO1 (centres unmarked) [Example I-1] equals 2.28

----------
The compounds listed here are annotated with their logP.
Assay: log P (pH 2.7) given with the preparation examples
Assay type: physicochemical
Settings: pH 2.7, pH 2.7

COC(=O)C1CC(c2csc(C3CCN(C(=O)Cn4nc(C(F)F)cc4C(F)F)CC3)n2)=NO1 (stereo not shown) [Example I-1] :: 2.26
CCOC(=O)C1CC(c2csc(C3CCN(C(=O)OC(C)(C)C)CC3)n2)=NO1 (stereo not shown) [B] :: 3.14
CC(C)(C)OC(=O)N1CCC(c2nc(C=NO)cs2)CC1 [A] :: 2.25

Now for another entry.
The recorded logP for entry O=C(O)C1CC(c2csc(C3CCN(C(=O)Cn4nc(C(F)F)cc4C(F)F)CC3)n2)=NO1 (stereo not shown) [D] equals 1.77
